Reference for the values: patent US20240270857A1

Target: T1, Human IL-1Rrp2/IL-1R6 protein, His Tag (ACROBiosystems, IL2-H52H6) (human, UniProt Q9HB29 20-335)
T1 construct: Bought protein; the soluble protein is likely only the extracellular part; also called hIL-36R; human IL36R antigen; not shown: His tag
T1 sequence: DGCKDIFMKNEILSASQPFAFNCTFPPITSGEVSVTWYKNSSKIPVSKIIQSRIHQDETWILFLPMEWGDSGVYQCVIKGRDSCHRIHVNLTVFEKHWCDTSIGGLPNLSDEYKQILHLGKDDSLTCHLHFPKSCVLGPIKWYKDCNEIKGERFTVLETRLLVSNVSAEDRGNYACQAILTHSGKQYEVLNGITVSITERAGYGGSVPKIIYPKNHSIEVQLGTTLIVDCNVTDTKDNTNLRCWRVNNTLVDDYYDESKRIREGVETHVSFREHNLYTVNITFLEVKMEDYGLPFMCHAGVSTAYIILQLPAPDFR
Test: ELISA, plate coated with human IL-1Rrp2/IL-1R6 His Tag, HRP-protein A/G, OD450
EXPERIMENTAL ENDPOINT: EC50 (nM)
Express the result in nM but write the number alone.

Use these answered entries as a reference point.
hz84C4-1.5 (antibody, human IgG4 S228P, kappa, V domains shown, Humanized, human IgG4 / kappa) VH: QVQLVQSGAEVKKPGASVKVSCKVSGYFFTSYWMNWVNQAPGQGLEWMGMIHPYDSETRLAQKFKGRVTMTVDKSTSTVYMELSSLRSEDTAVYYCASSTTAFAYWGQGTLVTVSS VL: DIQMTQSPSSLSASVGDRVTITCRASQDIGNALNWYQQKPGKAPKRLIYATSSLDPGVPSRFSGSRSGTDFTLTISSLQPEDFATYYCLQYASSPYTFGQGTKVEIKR
0.624
hz84C4-2.1 (antibody, human IgG4 S228P, kappa, V domains shown, Humanized, human IgG4 / kappa) VH: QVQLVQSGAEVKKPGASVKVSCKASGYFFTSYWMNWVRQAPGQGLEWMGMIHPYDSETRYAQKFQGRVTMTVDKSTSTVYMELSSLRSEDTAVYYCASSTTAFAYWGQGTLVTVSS VL: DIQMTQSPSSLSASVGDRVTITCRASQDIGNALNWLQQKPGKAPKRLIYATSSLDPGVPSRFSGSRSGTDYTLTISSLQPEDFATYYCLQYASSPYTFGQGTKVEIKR
0.558

Exercise: Looking for the measured EC50 of hz84C4-1.3 (antibody, human IgG4 S228P, kappa, V domains shown, Humanized, human IgG4 / kappa) VH: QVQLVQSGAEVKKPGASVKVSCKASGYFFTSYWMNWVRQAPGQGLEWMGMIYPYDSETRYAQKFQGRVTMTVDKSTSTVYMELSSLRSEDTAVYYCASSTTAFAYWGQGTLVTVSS VL: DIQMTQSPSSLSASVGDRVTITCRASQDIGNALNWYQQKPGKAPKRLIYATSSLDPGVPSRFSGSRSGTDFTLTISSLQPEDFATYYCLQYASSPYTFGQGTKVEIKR , can you help?
Key: 3.41

Exercise: Looking for the measured EC50 of hz84C4-2.5 (antibody, human IgG4 S228P, kappa, V domains shown, Humanized, human IgG4 / kappa) VH: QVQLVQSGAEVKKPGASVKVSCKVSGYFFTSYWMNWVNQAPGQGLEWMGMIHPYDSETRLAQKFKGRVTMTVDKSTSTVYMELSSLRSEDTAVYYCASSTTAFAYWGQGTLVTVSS VL: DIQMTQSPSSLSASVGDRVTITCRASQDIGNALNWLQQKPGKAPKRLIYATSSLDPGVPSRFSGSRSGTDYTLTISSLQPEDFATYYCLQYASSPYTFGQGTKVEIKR , can you help?
Key: 0.497

Exercise: Looking for the measured EC50 of hz84C4-1.2 (antibody, human IgG4 S228P, kappa, V domains shown, Humanized, human IgG4 / kappa) VH: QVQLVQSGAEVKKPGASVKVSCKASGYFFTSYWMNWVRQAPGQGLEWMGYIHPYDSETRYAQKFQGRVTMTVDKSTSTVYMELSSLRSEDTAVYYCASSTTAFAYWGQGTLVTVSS VL: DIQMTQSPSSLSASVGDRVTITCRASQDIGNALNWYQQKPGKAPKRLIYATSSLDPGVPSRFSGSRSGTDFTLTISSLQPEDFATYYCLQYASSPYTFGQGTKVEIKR , can you help?
Key: 0.531
